Origin of the recorded values: the supplement of paper PMC9112550

Tested on: Escherichia coli TOP10;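 also: peptides expressed intracellularly from a pBAD plasmid library in pooled LB shake-flask culture, induced with 0.3% L-arabinose, DNA abundance read by NGS, three biological replicates, DESeq2 with apeglm shrinkage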
Test description: shrunken log2 fold change of peptide-encoding DNA abundance (4.5 h post-induction vs induction); higher = less antimicrobial activity (less host growth inhibition)
Run conditions: time post-induction: 4.5 h; library: site-saturation at positions 5, 18, 19, 20
Readout label: shrunken log2 fold change
Answers are plain numbers.

Here's what some known entries look like.
| Sequence code | Readout label | Readout number |
| --- | --- | --- |
| RRIRGRPPRLPRPRPRPEYCPRP | shrunken log2 fold change | 0.307 |
| RRIRARPPRLPRPRPRPYCYPRP | shrunken log2 fold change | -0.227 |
| RRIRNRPPRLPRPRPRPKDIPRP | shrunken log2 fold change | 0.0127 |

Below are 2 sequences. Give each one its shrunken log2 fold change.
1. RRIRARPPRLPRPRPRPDYEPRP
2. RRIRTRPPRLPRPRPRPGRCPRP

**A:**
1: 0.00147; 2: 0.178

Below are 3 sequences. Give each one its shrunken log2 fold change.
1. RRIRSRPPRLPRPRPRPKHFPRP
2. RRIRSRPPRLPRPRPRPSMDPRP
3. RRIRVRPPRLPRPRPRPIWGPRP

**A:**
1. 0.0852
2. -0.514
3. 0.0376

Below are 5 sequences. Give each one its shrunken log2 fold change.
1. RRIRCRPPRLPRPRPRPWVDPRP
2. RRIRKRPPRLPRPRPRPKYHPRP
3. RRIRSRPPRLPRPRPRPFRGPRP
4. RRIRPRPPRLPRPRPRPFWVPRP
5. RRIRFRPPRLPRPRPRPTGKPRP

**A:**
1. -0.00886
2. -0.204
3. -0.242
4. 0.0111
5. 0.205

Below are 2 sequences. Give each one its shrunken log2 fold change.
1. RRIRYRPPRLPRPRPRPKTHPRP
2. RRIRSRPPRLPRPRPRPNPYPRP

**A:**
[-0.661, -0.558]
